test: Quantitative High-Throughput drug screen in 47 multiple myeloma cell lines against the NCATS MIPE library collection: INA6_PLB cell viability assay (AID 1918965; further: nearly all actives have a fitted effect of over 55% in size); settings: INA6 myeloma viability, CellTiter-Glo ATP luminescence, 48 h; series mostly up to 45.8 µM
Results filed as inconclusive are left out. Calls of active or inactive are those of the source. The call rests on the fitted dose curve; in most records, active means well fitted cell-killing curve with a large enough effect; inconclusive means small, poorly fitted or top-dose-only effect, or effect the other way; inactive means no such curve, though single readings can be large or run the other way.
Answer with one of the outcomes given here: T (active), F (inactive)

q: Hi, sorry to bother you, what did the test record for O=S(=O)(NCCNCC=Cc1ccc(Br)cc1)c1cccc2cnccc12 ?
a: T

q: Hi, sorry to bother you, what did the test record for CCN1C[C@H](C)n2c(c(O)c3c(=O)n(Cc4ccc(F)c(Cl)c4)nc(C(=O)NC)c32)C1=O ?
a: F

q: Hi, sorry to bother you, what did the test record for O=C(C=Cc1ccc(O)cc1)c1ccc(O)cc1O ?
a: T

q: Hi, sorry to bother you, what did the test record for COc1ccc(CCN(C)CCCOc2ccc(S(=O)(=O)c3[nH]c4ccccc4c3C(C)C)cc2)cc1OC ?
a: T

q: Hi, sorry to bother you, what did the test record for COc1ccc(C=CC(=O)Nc2ccccc2C(=O)O)cc1OC ?
a: T

q: Hi, sorry to bother you, what did the test record for COc1cc2ncnc(Nc3cc(Br)c(O)c(Br)c3)c2cc1OC ?
a: T

q: Hi, sorry to bother you, what did the test record for O=C1Nc2ccc(I)cc2C1=Cc1cc(Br)c(O)c(Br)c1 ?
a: T

q: Hi, sorry to bother you, what did the test record for CC(C)Oc1cc(Nc2nc(N[C@@H](C)c3ccc(F)cn3)ncc2Cl)[nH]n1 ?
a: T

q: Hi, sorry to bother you, what did the test record for C=CC[N+]1([C@H]2C[C@H]3[C@@H]4CC[C@H]5C[C@H](O)[C@@H](N6CCOCC6)C[C@]5(C)[C@@H]4CC[C@]3(C)[C@H]2OC(C)=O)CCCC1 ?
a: F

q: Hi, sorry to bother you, what did the test record for COc1cc2nc(-c3cc(F)ccc3O)nc(N[C@@H]3CNC[C@@H]3C(C)(C)O)c2cc1OC ?
a: T

q: Hi, sorry to bother you, what did the test record for N#CC(c1ccc(Cl)cc1)c1c(Cl)cc(-n2ncc(=O)[nH]c2=O)cc1Cl (stereo unspecified) ?
a: T

q: Hi, sorry to bother you, what did the test record for O=C(Nc1ccc(OC(F)(F)F)cc1)c1sccc1NCc1ccnc2ccccc12 ?
a: T

q: Hi, sorry to bother you, what did the test record for Nc1ncnc2c1ncn2[C@@H]1O[C@H](CO)[C@@H](O)[C@@H]1O ?
a: T

q: Hi, sorry to bother you, what did the test record for C#C[C@]1(O)CC[C@H]2[C@H]3CCc4cc(OC)ccc4[C@H]3CC[C@@]21C ?
a: T

q: Hi, sorry to bother you, what did the test record for CNC1[C@H](O)C(O[C@@H]2C(O)C(O[C@H]3O[C@H]([C@@H](C)NC)CC[C@H]3N)[C@@H](N)C[C@H]2N)OC[C@]1(C)O (stereo partly specified) ?
a: F

q: Hi, sorry to bother you, what did the test record for CN[C@@H](C)[C@H]1[C@H](O)C[C@@]2(C)[C@@H]3CC[C@H]4C(C)(C)[C@@H](NC)CC[C@@]45C[C@@]35CC[C@]12C ?
a: F

q: Hi, sorry to bother you, what did the test record for Cc1cc(CS(=O)(=O)c2ccccc2)cc(OCc2ccc(CN3CCC[C@H]3CO)cc2)c1 ?
a: T

q: Hi, sorry to bother you, what did the test record for CC1(C)C(N(O)C(=O)Nc2ccc(Cl)cc2)N(c2ccc(Cl)cc2)C(=O)N1CC(=O)NN=CC=Cc1ccc([N+](=O)[O-])o1 (stereo unspecified) ?
a: T

q: Hi, sorry to bother you, what did the test record for Fc1ccc(CNc2ncnc3ccc(F)cc23)cc1 ?
a: T

q: Hi, sorry to bother you, what did the test record for COc1c(C)cnc(Cn2cnc3c(Cl)nc(N)nc32)c1C ?
a: T

q: Hi, sorry to bother you, what did the test record for OC[C@H]1O[C@@H](O[C@H]2[C@@H](O)[C@@](O)(CO)O[C@@H]2CO)[C@H](O)[C@@H](O)[C@@H]1O ?
a: F

q: Hi, sorry to bother you, what did the test record for O=C(O)C1=NC(C(=O)O)CC(C=CN2c3cc(O)c(OC4OC(CO)C(O)C(O)C4O)cc3CC2C(=O)O)=C1 (stereo unspecified) ?
a: F

q: Hi, sorry to bother you, what did the test record for CCc1cccc(CC)c1NC(=O)N1Cc2[nH]nc(NC(=O)c3ccc(N4CCN(C)CC4)cc3)c2C1 ?
a: T

q: Hi, sorry to bother you, what did the test record for N#CC(=C1Nc2ccccc2S1)c1ccnc(OCc2ccc(CN3CCOCC3)cc2)n1 ?
a: T

q: Hi, sorry to bother you, what did the test record for COc1cc2c(cc1OC)CC(=O)N(CCCN(C)C[C@H]1Cc3cc(OC)c(OC)cc31)CC2 ?
a: F

q: Hi, sorry to bother you, what did the test record for NC(N)=Nc1nc(CSCCC(N)=NS(N)(=O)=O)cs1 ?
a: T

q: Hi, sorry to bother you, what did the test record for CN1CC(=O)NC1=NC(=O)Nc1cccc(Cl)c1 ?
a: T

q: Hi, sorry to bother you, what did the test record for C[C@@H]1C[C@H]2[C@@H]3CCC4=CC(=O)C=C[C@]4(C)[C@@]3(F)[C@@H](O)C[C@]2(C)[C@@]1(O)C(=O)CO ?
a: F

q: Hi, sorry to bother you, what did the test record for CCNC(=O)c1noc(-c2cc(C(C)C)c(O)cc2O)c1-c1ccc(CN2CCOCC2)cc1 ?
a: T

q: Hi, sorry to bother you, what did the test record for Cc1cc(C(C)Nc2ccccc2)c2nc(N3CCOCC3)cc(=O)n2c1 (stereo unspecified) ?
a: T

q: Hi, sorry to bother you, what did the test record for CCCCC(C)(C)[C@H](O)C=C[C@H]1[C@H](O)CC(=O)[C@H]1CC=CCCCC(=O)O ?
a: T

q: Hi, sorry to bother you, what did the test record for CO[C@H]1O[C@@H]2O[C@@]3(C)CC[C@@H]4[C@@H](C)CC[C@@H]([C@H]1C)[C@@]24OO3 ?
a: T

q: Hi, sorry to bother you, what did the test record for Cc1cnc(-c2cc(N3CCN(C(=O)CCS(C)(=O)=O)CC3)ncc2Cl)c(C)c1 ?
a: T

q: Hi, sorry to bother you, what did the test record for O=C(O)CCNc1cc(N2CCc3ccccc3CC2)nc(-c2ccccn2)n1 ?
a: T

q: Hi, sorry to bother you, what did the test record for CC[C@H](C=C[C@@H](C)[C@H]1CC[C@H]2[C@@H]3CC=C4C[C@@H](O)CC[C@]4(C)[C@@H]3CC[C@]12C)C(C)C ?
a: T

q: Hi, sorry to bother you, what did the test record for CN(C(Cc1ccc(OS(=O)(=O)c2cccc3cnccc23)cc1)C(=O)N1CCN(c2ccccc2)CC1)S(=O)(=O)c1cccc2cnccc12 (stereo unspecified) ?
a: T
